Target: recombinant GST-TEAD1 proteins (209 to 426 a.a.) (Homo sapiens, UniProt P28347)
Construct: recombinant GST-TEAD1 proteins (209 to 426 a.a.)
Sequence (P28347 209-426): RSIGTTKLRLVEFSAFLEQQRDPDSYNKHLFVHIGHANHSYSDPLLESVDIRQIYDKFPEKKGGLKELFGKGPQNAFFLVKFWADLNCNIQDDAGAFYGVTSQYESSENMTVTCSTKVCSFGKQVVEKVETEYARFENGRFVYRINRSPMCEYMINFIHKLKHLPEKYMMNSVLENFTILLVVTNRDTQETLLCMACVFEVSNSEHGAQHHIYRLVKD
Assay: Evaluation of palmitoylation of TEAD protein
Type: biochemical
Conditions: 5 μM compound, 15 minutes preincubation, 3 μM alkyne palmitoyl-CoA 30 minutes, pH 6.4, vs DMSO control
Could you please report measured inhibition at 5 µM for the items listed next?

As a guide, the following entries are already answered.
smiles_data=C=CC(=O)Nc1ncc2cnn(Cc3ccc(C(F)(F)F)cc3)c2n1 reported="< 40%"
smiles_data=C=CC(=O)Nc1cnc2c(cnn2CC2CCC(F)(F)CC2)c1 reported="40 to 80%"
smiles_data=C=CC(=O)Nc1cnc2c(c1)c(C)nn2-c1ccc(F)nc1 reported="40 to 80%"

// for each molecule in input: emit inhibition at 5 µM
1. C=CC(=O)Nc1cnc2c(c1)c(C)nn2-c1cccc(C(F)(F)F)c1
2. C=CC(=O)Nc1cnc2c(c1)c(C)nn2-c1ccc(N)cc1
3. C=CC(=O)Nc1cnc2c(c1)c(C)cn2-c1ccc(Cl)cc1
4. C=CC(=O)Nc1cnc2c(c1)c(C)nn2-c1ccc(C(F)F)cc1
5. C=CC(=O)Nc1cnc2c(cnn2CC2CCCC2)c1

OUTPUT:
40 to 80%
< 40%
40 to 80%
40 to 80%
40 to 80%
